Test system: sAA2178
Experiment: Shake flask bioconversion of feedstocks of varying chain length (Example 72)
Format: cell-based, Candida
Label MET when % improvement over ATTC 20962 sAA-2178 >= 30%; otherwise NOT MET.

Molecule | System | Discrete Label
CCCCCCCCCCCCCCCCCC(=O)OCC [Ethyl stearate] | sAA2178 | MET
CCCCCCCCCCCCCCCCC | sAA2178 | NOT MET
CCCCCCCCCCCCC | sAA2178 | NOT MET
CCCCCCCCCCCCCCC | sAA2178 | NOT MET
CCCCCCCCCCCCCC(=O)OCC [Ethyl tetradecanoate] | sAA2178 | NOT MET
CCCCCCCCCCCCCCCC(=O)OCC [Ethyl palmitate] | sAA2178 | MET

Value source: patent US20190010524A1
